Hey, just so you know, these numbers are from patent US6525077B2.

assay-protocol: Solubility in water
Format: physicochemical
conditions: thermodynamic from solid; shaken in water for one hour at room temperature, filtration, filtrate by HPLC
measurement-label: solubility at 1 h (µg/mL)
Respond with the bare value in µg/mL.

Sure, the documented solubility at 1 h for `N#CNC(=Nc1ccncc1)NCCCCCCOc1ccc(Cl)cc1` is 0.2
